B1: 2K2A (parent)
chain: ELREAFRLYDKEGNGYISTDVMREILAELDETLSSEDLDAMIDEIDADGSGTVDFEEFMGVMT

variants of: B1; test: folding stability dG (cDNA display proteolysis); higher = more stable; conditions: PBS, room temperature
property.label: folding stability dG (kcal/mol)
Report the figure in kcal/mol without appending any unit label.

Study these solved cases before continuing.
1. E4A ... 1.77
2. E56R ... 1.78
3. M62P ... 0.128

Req: Please report the recorded folding stability dG for E12V .
Resp: 1.19

Req: Then R3T ?
Resp: 1.44

Req: Do the same for D43G please
Resp: 1.87

Req: Try E4R next.
Resp: 1.6

Req: Thanks! And E31F ?
Resp: 1.89

Req: Try this variant next: F55Y
Resp: 1.88

Sourced from the MegaScale stability set (Tsuboyama et al. 2023)
